Hello, the source for this data is ChEMBL document CHEMBL4706583, in case you need it.

# Test system: BT-549
# procedure.summary: Growth inhibition of human BT-549 cells measured after 48 hrs by SRB assay
# Type: functional
metric: GI50 (µM)

{"compound": "Cc1ccc(NC(=O)c2ccc(CN3CCN(C)CC3)cc2)cc1Nc1nccc(-c2cccnc2)n1 [IMATINIB]", "metric": "GI50", "result.number": 16.1}
{"compound": "COc1cc2cc(Oc3ccc(NC(=O)c4cc(C(F)(F)F)cc(C(F)(F)F)c4)cc3)c(C)nc2cc1OC", "metric": "GI50", "result.number": 3.02}
{"compound": "CCN1CCN(c2cc(C(=O)Nc3cccc(Nc4ccc5c(OC)cccc5n4)c3)cc(C(F)(F)F)c2)CC1", "metric": "GI50", "result.number": 3.78}
{"compound": "COc1cccc2nc(Nc3cccc(NC(=O)c4ccc(N5CCN(C)CC5)c(C(F)(F)F)c4)c3)ccc12", "metric": "GI50", "result.number": 2.79}

###

pIC50: −log10 of the molar value.
Values of pIC50 reported for Epithelial discoidin domain-containing receptor 1 (Homo sapiens, UniProt Q08345) appear below.
metric: pIC50

{"compound": "COc1cccc2nc(Nc3cccc(NC(=O)c4ccc(N5CCN(C)CC5)c(C(F)(F)F)c4)c3)ccc12", "target.or.test.system": "Epithelial discoidin domain-containing receptor 1 (Homo sapiens, UniProt Q08345)", "result.number": 5.65}
{"compound": "CCN1CCN(c2cc(C(=O)Nc3cccc(Nc4ccc5c(OC)cccc5n4)c3)cc(C(F)(F)F)c2)CC1", "target.or.test.system": "Epithelial discoidin domain-containing receptor 1 (Homo sapiens, UniProt Q08345)", "result.number": 6.27}

###

# Tested on: UO-31
# procedure.summary: Growth inhibition of human UO-31 cells at 10 uM measured after 48 hrs by SRB assay relative to control
# Type: functional
# cond: read-out: GI
metric: inhibition of growth at 10 µM

{"compound": "COc1cccc2nc(Nc3cccc(NC(=O)c4cc(C(F)(F)F)cc(C(F)(F)F)c4)c3)ccc12", "result": "28.2%"}
{"compound": "COc1cccc2nc(Nc3ccc(NC(=O)c4ccc5c(c4)OCCO5)cc3)ccc12", "result": "< 20%"}
{"compound": "COc1cccc2nc(Nc3cccc(NC(=O)c4ccc5ncccc5c4)c3)ccc12", "result": "22.9%"}
{"compound": "COc1cccc2nc(Nc3cccc(NC(=O)c4ccc(Cl)c(C(F)(F)F)c4)c3)ccc12", "result": "37.6%"}
{"compound": "COc1cccc2nc(Nc3cccc(NC(=O)c4ccc5c(c4)OCCO5)c3)ccc12", "result": "< 20%"}
{"compound": "COc1cccc2nc(Nc3ccc(NC(=O)c4ccc(Cl)c(C(F)(F)F)c4)cc3)ccc12", "result": "< 20%"}
{"compound": "COc1cccc2nc(Nc3cccc(NC(=O)c4cccc(Cl)n4)c3)ccc12", "result": "< 20%"}

###

# Test system: CCRF-CEM
# procedure.summary: Growth inhibition of human CCRF-CEM cells at 10 uM measured after 48 hrs by SRB assay relative to control
# Format: functional
# cond: read-out: GI
metric: inhibition of growth at 10 µM (%)

{"compound": "COc1cccc2nc(Nc3ccc(NC(=O)c4ccc5c(c4)OCCO5)cc3)ccc12", "comparative.sign": "<", "result.number": 20}
{"compound": "COc1cccc2nc(Nc3ccc(NC(=O)c4ccc(Cl)c(C(F)(F)F)c4)cc3)ccc12", "comparative.sign": "<", "result.number": 20}
{"compound": "COc1cccc2nc(Nc3cccc(NC(=O)c4ccc5c(c4)OCCO5)c3)ccc12", "comparative.sign": "=", "result.number": 33.4}
{"compound": "COc1cccc2nc(Nc3cccc(NC(=O)c4cccc(Cl)n4)c3)ccc12", "comparative.sign": "<", "result.number": 20}
{"compound": "COc1cccc2nc(Nc3cccc(NC(=O)c4cc(C(F)(F)F)cc(C(F)(F)F)c4)c3)ccc12", "comparative.sign": "=", "result.number": 34.4}
{"compound": "COc1cccc2nc(Nc3cccc(NC(=O)c4ccc(Cl)c(C(F)(F)F)c4)c3)ccc12", "comparative.sign": "=", "result.number": 32.9}
{"compound": "COc1cccc2nc(Nc3cccc(NC(=O)c4ccc5ncccc5c4)c3)ccc12", "comparative.sign": "=", "result.number": 36.9}

###

# procedure.summary: Cytotoxicity against African green monkey Vero cells assessed as cell viability at 10 uM measured after 48 hrs by EZ-Cytox assay relative to control
# Assay type: cell-based
# cond: chlorocebus sabaeus, read-out: Activity
This listing pairs molecules with measured viability at 48 h, 10 µM.

{"compound": "CCN1CCN(c2cc(C(=O)Nc3cccc(Nc4ccc5c(OC)cccc5n4)c3)cc(C(F)(F)F)c2)CC1", "viability at 48 h, 10 µM (%)": 74.1}
{"compound": "COc1cccc2nc(Nc3cccc(NC(=O)c4ccc(N5CCN(C)CC5)c(C(F)(F)F)c4)c3)ccc12", "viability at 48 h, 10 µM (%)": 77.1}

###

# reported GI50; entries follow
# System: A498
# procedure.summary: Growth inhibition of human A498 cells measured after 48 hrs by SRB assay
# Format: functional

{"molecule": "COc1cccc2nc(Nc3cccc(NC(=O)c4ccc(N5CCN(C)CC5)c(C(F)(F)F)c4)c3)ccc12", "units.label": "µM", "GI50": 1.8}
{"molecule": "CCN1CCN(c2cc(C(=O)Nc3cccc(Nc4ccc5c(OC)cccc5n4)c3)cc(C(F)(F)F)c2)CC1", "units.label": "µM", "GI50": 4.94}
{"molecule": "COc1cc2cc(Oc3ccc(NC(=O)c4cc(C(F)(F)F)cc(C(F)(F)F)c4)cc3)c(C)nc2cc1OC", "units.label": "µM", "GI50": 1.13}
{"molecule": "Cc1ccc(NC(=O)c2ccc(CN3CCN(C)CC3)cc2)cc1Nc1nccc(-c2cccnc2)n1 [IMATINIB]", "units.label": "µM", "GI50": 22}

###

# procedure.summary: Cytotoxicity against human L132 cells assessed as cell viability at 1 uM measured after 48 hrs by EZ-Cytox assay relative to control
# Assay type: cell-based
# cond: read-out: Activity

{"compound": "COc1cccc2nc(Nc3cccc(NC(=O)c4ccc(N5CCN(C)CC5)c(C(F)(F)F)c4)c3)ccc12", "units.label": "%", "viability at 48 h, 1 µM": 97}
{"compound": "CCN1CCN(c2cc(C(=O)Nc3cccc(Nc4ccc5c(OC)cccc5n4)c3)cc(C(F)(F)F)c2)CC1", "units.label": "%", "viability at 48 h, 1 µM": 91.2}

###

inhibition of growth at 10 µM: recorded values
# Tested on: T47D
# procedure.summary: Growth inhibition of human T47D cells at 10 uM measured after 48 hrs by SRB assay relative to control
# Format: functional
# cond: read-out: GI
metric: inhibition of growth at 10 µM

{"compound": "COc1cccc2nc(Nc3ccc(NC(=O)c4ccc5c(c4)OCCO5)cc3)ccc12", "result": "< 20%"}
{"compound": "COc1cccc2nc(Nc3cccc(NC(=O)c4ccc(Cl)c(C(F)(F)F)c4)c3)ccc12", "result": "21.3%"}
{"compound": "COc1cccc2nc(Nc3cccc(NC(=O)c4ccc5c(c4)OCCO5)c3)ccc12", "result": "46%"}
{"compound": "COc1cccc2nc(Nc3cccc(NC(=O)c4ccc5ncccc5c4)c3)ccc12", "result": "58%"}
{"compound": "COc1cccc2nc(Nc3cccc(NC(=O)c4cccc(Cl)n4)c3)ccc12", "result": "< 20%"}
{"compound": "COc1cccc2nc(Nc3cccc(NC(=O)c4cc(C(F)(F)F)cc(C(F)(F)F)c4)c3)ccc12", "result": "< 20%"}
{"compound": "COc1cccc2nc(Nc3ccc(NC(=O)c4ccc(Cl)c(C(F)(F)F)c4)cc3)ccc12", "result": "< 20%"}

###

# target.or.test.system: Serine/threonine-protein kinase B-raf (Homo sapiens, UniProt P15056, V600E)
# Sequence (P15056 2-766 V600E limits assumed): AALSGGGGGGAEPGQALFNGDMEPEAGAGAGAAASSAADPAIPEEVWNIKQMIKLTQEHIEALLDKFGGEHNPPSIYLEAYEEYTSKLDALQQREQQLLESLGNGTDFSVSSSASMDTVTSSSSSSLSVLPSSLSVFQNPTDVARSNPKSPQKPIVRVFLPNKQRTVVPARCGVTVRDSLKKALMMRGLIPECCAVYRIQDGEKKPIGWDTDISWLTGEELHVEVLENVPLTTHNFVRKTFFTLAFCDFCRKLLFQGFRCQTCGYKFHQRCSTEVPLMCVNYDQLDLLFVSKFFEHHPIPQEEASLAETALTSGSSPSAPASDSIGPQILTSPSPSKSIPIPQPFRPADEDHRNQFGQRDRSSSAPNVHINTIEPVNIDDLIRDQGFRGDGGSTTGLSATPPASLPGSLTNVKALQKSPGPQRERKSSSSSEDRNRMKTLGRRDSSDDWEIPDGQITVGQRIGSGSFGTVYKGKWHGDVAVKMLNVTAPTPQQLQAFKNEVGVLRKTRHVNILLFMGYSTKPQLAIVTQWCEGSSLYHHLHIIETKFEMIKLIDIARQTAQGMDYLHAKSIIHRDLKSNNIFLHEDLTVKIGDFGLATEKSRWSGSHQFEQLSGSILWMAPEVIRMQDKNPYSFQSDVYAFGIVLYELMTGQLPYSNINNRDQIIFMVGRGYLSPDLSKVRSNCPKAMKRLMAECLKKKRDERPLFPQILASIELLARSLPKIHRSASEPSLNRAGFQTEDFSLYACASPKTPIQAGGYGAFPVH
# procedure.summary: Inhibition of human BRAF V600E mutant using MEK1 (K97R) as substrate in presence of [gamma-33P]ATP by scintillation counting method

{"compound": "CCN1CCN(c2cc(C(=O)Nc3cccc(Nc4ccc5c(OC)cccc5n4)c3)cc(C(F)(F)F)c2)CC1", "target.or.test.system": "Serine/threonine-protein kinase B-raf (Homo sapiens, UniProt P15056, V600E)", "IC50, µM": 0.888}
{"compound": "COc1cccc2nc(Nc3cccc(NC(=O)c4cc(-n5cnc(C)c5)cc(C(F)(F)F)c4)c3)ccc12", "target.or.test.system": "Serine/threonine-protein kinase B-raf (Homo sapiens, UniProt P15056, V600E)", "IC50, µM": 1.1}
{"compound": "COc1cccc2nc(Nc3cccc(NC(=O)c4cc(N5CCOCC5)cc(C(F)(F)F)c4)c3)ccc12", "target.or.test.system": "Serine/threonine-protein kinase B-raf (Homo sapiens, UniProt P15056, V600E)", "IC50, µM": 1.49}
{"compound": "COc1cccc2nc(Nc3cccc(NC(=O)c4ccc(N5CCOCC5)c(C(F)(F)F)c4)c3)ccc12", "target.or.test.system": "Serine/threonine-protein kinase B-raf (Homo sapiens, UniProt P15056, V600E)", "IC50, µM": 4.57}
{"compound": "COc1cccc2nc(Nc3cccc(NC(=O)c4cc(C(F)(F)F)cc(C(F)(F)F)c4)c3)ccc12", "target.or.test.system": "Serine/threonine-protein kinase B-raf (Homo sapiens, UniProt P15056, V600E)", "IC50, µM": 9.45}
{"compound": "COc1cccc2nc(Nc3cccc(NC(=O)c4ccc(N5CCN(C)CC5)c(C(F)(F)F)c4)c3)ccc12", "target.or.test.system": "Serine/threonine-protein kinase B-raf (Homo sapiens, UniProt P15056, V600E)", "IC50, µM": 1.46}
